Values were extracted from paper PMC5700166.

binding signal: recorded values
Molecular target: GST-Hu-p50 (Homo sapiens, UniProt P19838 7-356)
Sequence (P19838 7-356): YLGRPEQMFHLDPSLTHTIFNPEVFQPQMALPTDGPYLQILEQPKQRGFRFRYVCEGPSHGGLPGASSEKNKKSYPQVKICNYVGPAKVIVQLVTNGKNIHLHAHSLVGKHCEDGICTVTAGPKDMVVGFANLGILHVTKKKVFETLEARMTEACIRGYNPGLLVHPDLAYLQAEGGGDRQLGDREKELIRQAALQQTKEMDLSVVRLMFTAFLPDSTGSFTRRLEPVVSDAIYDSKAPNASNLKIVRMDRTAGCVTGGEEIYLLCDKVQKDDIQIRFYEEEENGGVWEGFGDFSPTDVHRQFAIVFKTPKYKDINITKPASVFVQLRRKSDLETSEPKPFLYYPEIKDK
Assay: protein-binding microarray (PBM); PBM: ~300 nM protein, 6 mM HEPES pH 7.8, 80 mM KCl, 0.5 mM EDTA, 0.5 mM EGTA, 6% glycerol, 35 ng/ul poly-dIdC, 1% milk, 1 h, room temperature; Ap Aiptasia and Nv Nematostella (sea anemones) / Co Capsaspora / Aq Amphimedon (sponge) / Dm Drosophila / Hu human; RHD is the Rel homology domain; high values mean tight binding
Conditions: dsDNA, one strand shown
Reply numerically in z-score, unit not repeated.

For orientation, consider the following solved cases.
>>> recorded_result("CCGATTAACATCAAACTTCCCCTTGATGTTAATCGGGTCTTGATTCGCTTGACGCTGCTG")
6.98
>>> recorded_result("CCGATTAACATCAGGGGAAACACTGATGTTAATCGGGTCTTGATTCGCTTGACGCTGCTG")
6.08
>>> recorded_result("CCGATTAACATCAAGATTTTCCCTGATGTTAATCGGGTCTTGATTCGCTTGACGCTGCTG")
4.29
>>> recorded_result("CCGATTAACATCACGGGGATTTCTGATGTTAATCGGGTCTTGATTCGCTTGACGCTGCTG")
7.58
>>> recorded_result("CCGATTAACATCAAACACCCCCTTGATGTTAATCGGGTCTTGATTCGCTTGACGCTGCTG")
5.5
>>> recorded_result("CCGATTAACATCAAAAAGCCCCTTGATGTTAATCGGGTCTTGATTCGCTTGACGCTGCTG")
6.72

input: Tell me measured binding signal for `CCGATTAACATCAAATTTTCCCGTGATGTTAATCGGGTCTTGATTCGCTTGACGCTGCTG` please.
output: 4.58

input: Tell me measured binding signal for `CCGATTAACATCAACTTGGGAAATGATGTTAATCGGGTCTTGATTCGCTTGACGCTGCTG` please.
output: 1.54

input: Tell me measured binding signal for `CCGATTAACATCAGGGGTATTACTGATGTTAATCGGGTCTTGATTCGCTTGACGCTGCTG` please.
output: 3.9

input: Tell me measured binding signal for `CCGATTAACATCAGGGAGTACCCTGATGTTAATCGGGTCTTGATTCGCTTGACGCTGCTG` please.
output: 3.38

input: Tell me measured binding signal for `CCGATTAACATCAGGGGAAAGGATGATGTTAATCGGGTCTTGATTCGCTTGACGCTGCTG` please.
output: 3.87

input: Tell me measured binding signal for `CCGATTAACATCAGTTTCCCAAATGATGTTAATCGGGTCTTGATTCGCTTGACGCTGCTG` please.
output: 1.81

input: Tell me measured binding signal for `CCGATTAACATCAGGGAGTACACTGATGTTAATCGGGTCTTGATTCGCTTGACGCTGCTG` please.
output: 1.1

input: Tell me measured binding signal for `CCGATTAACATCAATTCCCCCCGTGATGTTAATCGGGTCTTGATTCGCTTGACGCTGCTG` please.
output: 5.76

input: Tell me measured binding signal for `CCGATTAACATCAAATTCCCAACTGATGTTAATCGGGTCTTGATTCGCTTGACGCTGCTG` please.
output: 2.66

input: Tell me measured binding signal for `CCGATTAACATCAAACAGTCCCCTGATGTTAATCGGGTCTTGATTCGCTTGACGCTGCTG` please.
output: 4.54

input: Tell me measured binding signal for `CCGATTAACATCAGGGCGCCCCCTGATGTTAATCGGGTCTTGATTCGCTTGACGCTGCTG` please.
output: 4.97

input: Tell me measured binding signal for `CCGATTAACATCACCTTTCCCCCTGATGTTAATCGGGTCTTGATTCGCTTGACGCTGCTG` please.
output: 5.65
